# method_summary: in vitro
# reported_conditions: human, CEM-SS cells (uninfected; cells plus peptide only)
Residues, ends and D or L forms follow the SMILES beside them.
measured_endpoint: viability at 10 micrograms per ml (%)
Return type: number; implicit unit %.

Can you share its viability at 10 micrograms per ml? I mean this molecule: CC[C@H](C)[C@H](NC(=O)[C@H](C)NC(=O)CNC(=O)[C@H](CCCNC(=N)N)NC(=O)[C@H](C)NC(=O)[C@H](CC(C)C)NC(=O)[C@H](CCC(=O)O)NC(=O)[C@H](CC(C)C)NC(=O)[C@H](C)NC(=O)[C@@H](N)CCC(=O)O)C(=O)N[C@@H](Cc1ccccc1)C(=O)N[C@@H](CCC(N)=O)C(=O)N[C@@H](C)C(N)=O [BINP] (H-EALELARGAIFQA-NH2)
99.1
